- TEST CONDITIONS: aqueous buffer, 1 h, pH 7.4
Below, each entry is listed alongside its reported % of Prodrug Remaining.
EXPERIMENTAL ENDPOINT: % of Prodrug Remaining (%)

INSERT INTO assay_data (molecule, result_value) VALUES
  ('CC(OC(=O)NC[C@H](CC(=O)[O-])c1ccc(Cl)cc1)OC(=O)C(C)C.[Na+] (stereo partly shown)', 72),
  ('CC(C)C(=O)OC(OC(=O)NC[C@H](CC(=O)[O-])c1ccc(Cl)cc1)C(C)C.[Na+] (stereo partly shown)', 100),
  ('CC(=O)OC(OC(=O)NC[C@H](CC(=O)[O-])c1ccc(Cl)cc1)C(C)C.[Na+] (stereo partly shown)', 89),
  ('CCOC(C)(OCC)C(=O)OCOC(=O)NC[C@H](CC(=O)[O-])c1ccc(Cl)cc1.[Na+]', 97);

====

- TEST CONDITIONS: rat, plasma, 1 h, 2 µM
Below, each entry is listed alongside its reported % of Baclofen Released.
EXPERIMENTAL ENDPOINT: % of Baclofen Released

INSERT INTO results (compound, experimental_endpoint, result_value) VALUES
  ('CCOC(C)(OCC)C(=O)OCOC(=O)NC[C@H](CC(=O)[O-])c1ccc(Cl)cc1.[Na+] [(51)]', '% of Baclofen Released', '72%'),
  ('CC(C)CC(=O)OCOC(=O)NC[C@H](CC(=O)[O-])c1ccc(Cl)cc1.[Na+] [(59)]', '% of Baclofen Released', '85%'),
  ('CC(C)C(=O)OC(OC(=O)NC[C@H](CC(=O)[O-])c1ccc(Cl)cc1)C(C)C.[Na+] (stereo partly shown) [(25)]', '% of Baclofen Released', '96%'),
  ('CCCC(=O)OC(OC(=O)NC[C@H](CC(=O)[O-])c1ccc(Cl)cc1)C1CCCCC1.[Na+] (stereo partly shown) [(85)]', '% of Baclofen Released', '12%'),
  ('CCC[C@H](OC(=O)NC[C@H](CC(=O)[O-])c1ccc(Cl)cc1)OC(=O)C(C)C.[Na+] [(91)]', '% of Baclofen Released', '10%'),
  ('CC(=O)OCOC(=O)NC[C@H](CC(=O)[O-])c1ccc(Cl)cc1.[Na+] [(10)]', '% of Baclofen Released', '15%'),
  ('O=C([O-])C[C@@H](CNC(=O)OCOC(=O)c1cccs1)c1ccc(Cl)cc1.[Na+] [(57)]', '% of Baclofen Released', '10%'),
  ('CC(C)C(=O)O[C@H](OC(=O)NC[C@H](CC(=O)[O-])c1ccc(Cl)cc1)C(C)C.[Na+] [(100)]', '% of Baclofen Released', '64%'),
  ('CC(OC(=O)NC[C@H](CC(=O)[O-])c1ccc(Cl)cc1)OC(=O)C(C)C.[Na+] (stereo partly shown) [(33)]', '% of Baclofen Released', '30%'),
  ('CC(=O)OC(OC(=O)NC[C@H](CC(=O)[O-])c1ccc(Cl)cc1)C(C)C.[Na+] (stereo partly shown) [(23)]', '% of Baclofen Released', '93%');

====

- ASSAY INFO: Pancreatin stability
- Assay type: in vitro ADME, porcine
- TEST CONDITIONS: pig; 1 % (w/v) pancreatin, 5 µM, pH 7.5, 37 °C, after 60 min; read-out: % of Prodrug Remaining
Below, each entry is listed alongside its reported remaining at 1 h, 5 µM.
EXPERIMENTAL ENDPOINT: remaining at 1 h, 5 µM (%)

INSERT INTO measurements (compound, result_value) VALUES
  ('CCCC(=O)OC(OC(=O)NC[C@H](CC(=O)O)c1ccc(Cl)cc1)C(C)C (stereo partly drawn)', 71),
  ('CC(C)C(OC(=O)NC[C@H](CC(=O)O)c1ccc(Cl)cc1)OC(=O)C(C)(C)C (stereo partly drawn)', 82),
  ('CCCC(=O)OCOC(=O)NC[C@H](CC(=O)O)c1ccc(Cl)cc1', 1),
  ('CCCC(=O)O[C@H](CCC)OC(=O)NC[C@H](CC(=O)O)c1ccc(Cl)cc1', 4),
  ('CC(=O)OC(C)OC(=O)NC[C@H](CC(=O)O)c1ccc(Cl)cc1 (stereo partly drawn)', 90),
  ('CC(C)C(=O)OCOC(=O)NC[C@H](CC(=O)O)c1ccc(Cl)cc1', 2);
